system: Wild type; test: S. aureus survival, RN4220 and DeltatarO strains – OD600, teichoic acid synthesis inhibitors, primary screen (AID 463173); details: S. aureus RN4220 wild type/DeltatarO growth, OD600, 18 h, stronger effect = lower value, screened at 18.75 µg/mL (by protocol)
About 1,700 (3.3%) of roughly 52,000 compounds were called active. This excerpt belongs to a sample that is enriched for actives.
Use survival to assign classes; range list: low value = under 80%, medium value = from 80% up to 90%, high value = 90% and over

Category lookup for the compound COc1ccc(N2CCN(C(CNC(=O)CC(C)C)c3ccc4c(c3)OCO4)CC2)cc1 (configuration not stated)
medium value

Category lookup for the compound "COc1ccc(-n2c(=O)c3sc4ccccc4c3n(C)c2=O)cc1"
medium value

---

system: Wild type; assay: S. aureus survival, RN4220 and DeltatarO strains – OD600, teichoic acid synthesis inhibitors, primary screen (AID 463173); settings: S. aureus RN4220 wild type/DeltatarO growth, OD600, 18 h, stronger effect = lower value, screened at 18.75 µg/mL (by protocol)
Among all 52,000 compounds or so, about 1,700 (3.3%) were called active. This is one part of a sample in which actives are shown more often than they occur.
Param label: returns Condition met when survival < 80%, returns Condition not met otherwise, including exact equality.

CC1(C)NC(=O)N(CC(O)CN2C(=O)NC(C)(C)C2=O)C1=O    Condition not met

Now, please, on to the next compound.
Lab note: confirm whether the reported survival for this compound is below 80%, equality not counting. compound: "Cc1cc(C)c2c(NC(=O)c3ccccc3Cl)c(C(=O)Nc3ccc(C)c(C)c3)sc2n1"
Condition met

---

test system: Wild type; experiment: S. aureus survival, RN4220 and DeltatarO strains – OD600, teichoic acid synthesis inhibitors, primary screen (AID 463173); conditions: S. aureus RN4220 wild type/DeltatarO growth, OD600, 18 h, stronger effect = lower value, screened at 18.75 µg/mL (by protocol)
Out of some 52,000 compounds screened, about 1,700 (3.3%) were called active. The sample holds actives, similar compounds and a random draw of the others, so the mix is not that of the screen.
Use survival to assign classes; range list: band 1 (below 60%), band 2 (60% to below 90%), band 3 (90% or more)

As a guide, the following entries are already answered.
CN(C(=O)c1cc2c(Cl)nc3ccccc3c2s1)c1cccc(C(F)(F)F)c1    band 2
CCN(CCCNC(=O)c1cc2c(Cl)nc3ccccc3c2s1)Cc1ccccc1    band 3
CCn1cc(/C=C(\NC(=O)c2ccccc2Cl)C(=O)NCCCn2ccnc2)c2ccccc21    band 3
CCOC(=O)CSc1nc2cc3c(cc2c(=O)n1CCCCCC(=O)NCc1ccc2c(c1)OCO2)OCO3    band 2
CCN(C(=O)c1cc2c(Cl)nc3ccccc3c2s1)c1cccc(Cl)c1    band 2

Category lookup for the molecule "CCc1ccc(NC(=O)CSc2nc3c(sc4ccccc43)c(=O)n2CCN(CC)CC)cc1"
band 2

Category lookup for the molecule "CC(C)(C)OC(=O)N1CCC(c2c(C(=O)NCc3ccccn3)cnn2-c2ccccc2)CC1"
band 2

Category lookup for the molecule "O=C(NCC12CC3CC(CC(C3)C1)C2)c1cc2nc(-c3ccccc3)cc(C(F)(F)F)n2n1"
band 1

Category lookup for the molecule "CCc1ccccc1N(C)C(=O)c1cc2c(Cl)nc3ccc(C)cc3c2s1"
band 1

Category lookup for the molecule "CCCN(C(=O)c1cc2c(Cl)nc3ccccc3c2s1)c1cccc(C)c1"
band 1

Category lookup for the molecule "CCCN(CCC)CCNC(=O)Cn1cc2c(n1)-c1c(oc(C(=O)N3CCCC3)c1C)CC2"
band 3

Category lookup for the molecule "Cc1ccc2nc(Cl)c3cc(C(=O)NCCCN(C)Cc4ccccc4)sc3c2c1"
band 1

Category lookup for the molecule "COc1ccccc1NC(=O)CN(C)S(=O)(=O)c1cccc2cccnc12"
band 3

Category lookup for the molecule "CCc1nn(CC(=O)NC2CC2)c(=O)c2cc3ccccc3n12"
band 3

Category lookup for the molecule "Cc1c(Cl)cccc1-n1ncc(C(=O)NC2CCCC2)c1C1CCN(C(=O)OC(C)(C)C)CC1"
band 2

Category lookup for the molecule "C#CCn1c(/C=C/c2ccc(Cl)cc2)nc2ccccc21"
band 1

Category lookup for the molecule "Cc1ccc2nc(Cl)c3cc(C(=O)N(C)C4CCCCC4)sc3c2c1"
band 1

---

# Lookup of reported survival keyed by entry
system: Wild type; experiment: S. aureus survival, RN4220 and DeltatarO strains – OD600, teichoic acid synthesis inhibitors, primary screen (AID 463173); settings: S. aureus RN4220 wild type/DeltatarO growth, OD600, 18 h, stronger effect = lower value, screened at 18.75 µg/mL (by protocol)
About 1,700 (3.3%) of roughly 52,000 compounds were called active. Shown is part of a subset that was picked to be rich in actives.
Reply with just the number (in %).

// worked examples, survival included
COc1ccccc1-c1nc(S(=O)(=O)c2ccccc2)c(N2CCC(C)CC2)o1    -5
O=S(=O)(c1ccccc1)c1nc(-c2ccccc2Cl)oc1N1CCCCCC1    14
COc1ccccc1-c1nc(S(=O)(=O)c2ccc(Cl)cc2)c(N2CCCCCC2)o1    70
COc1ccc(-c2nc(S(=O)(=O)c3ccccc3)c(N3CCC(C)CC3)o2)cc1    89

get_value(item= "O=C(Nc1ccc2c(c1)N(C1CCCC1)C(=O)c1ccccc1S2)c1ccccc1" , readout=survival) returns 75

---

# Lookup of reported survival keyed by entry
system: Wild type; test: S. aureus survival, RN4220 and DeltatarO strains – OD600, teichoic acid synthesis inhibitors, primary screen (AID 463173); conditions: S. aureus RN4220 wild type/DeltatarO growth, OD600, 18 h, stronger effect = lower value, screened at 18.75 µg/mL (by protocol)
Out of some 52,000 compounds screened, about 1,700 (3.3%) were called active. What follows is part of a selection rich in actives, with near analogues and random picks from the rest.
Reply with just the number (in %).

COc1cc(OC)c(NC2(c3ccccc3)C(=O)c3ccccc3C2=O)cc1Cl    65
COc1ccccc1N1CCN(C(=O)c2cnn(-c3ccc(C)c(C)c3)c2C2CCN(C(=O)OC(C)(C)C)CC2)CC1    99
CN(C)CCNC(=O)C(=O)NCC(c1ccc2c(c1)OCO2)N1CCOCC1 (stereo not given)    73
CC1CCN(S(=O)(=O)c2ccc3c(c2)N(CC(=O)NCCN(C)C)C(=O)CO3)CC1    76
CC(C)(C)CC(=O)NCC(c1ccc2c(c1)OCO2)N1CCOCC1 (stereo not given)    73

Tested on Wild type: CCC(=O)N1c2ccc(S(=O)(=O)CCC(=O)Nc3ccc(Br)c(C)c3)cc2CC1C (stereo not given) . Observed survival: 87

Tested on Wild type: COc1ccc(CCNC(=O)C(=O)NCC(c2ccc3c(c2)OCO3)N2CCOCC2)cc1OC (stereo not given) . Observed survival: 73

Tested on Wild type: "Clc1ccc2[nH]c3nc4ccccc4nc3c2c1" . Observed survival: 104

Tested on Wild type: O=C(NCCO)C(=O)NCC(c1ccc2c(c1)OCO2)N1CCOCC1 (stereo not given) . Observed survival: 59

Tested on Wild type: "Cc1oc2ncnc(N3CCCCC3)c2c1C(=O)N1CCN(c2cccc(C(F)(F)F)c2)CC1" . Observed survival: 87

---

system: Wild type; assay: S. aureus survival, RN4220 and DeltatarO strains – OD600, teichoic acid synthesis inhibitors, primary screen (AID 463173); conditions: S. aureus RN4220 wild type/DeltatarO growth, OD600, 18 h, stronger effect = lower value, screened at 18.75 µg/mL (by protocol)
Screen size: about 52,000 compounds; about 1,700 (3.3%) were called active. This excerpt belongs to a sample that is enriched for actives.
Param label: returns Satisfied when survival < 70%, returns Not satisfied otherwise, including exact equality.

Cc1ccc(NC(=O)c2ccc(-c3cccc(Cl)c3C)o2)cc1    Satisfied

Lab note: confirm whether the reported survival for this compound is below 70%, equality not counting. compound: "CCN(C(=O)CSc1nc2ccccc2nc1Cc1cccc(OC)c1)c1cccc(C)c1"
Satisfied

Lab note: confirm whether the reported survival for this compound is below 70%, equality not counting. compound: "CCCCOC(=O)c1cccc(NC(=O)/C=C/c2ccccc2Cl)c1"
Satisfied

---

test system: Wild type; test: S. aureus survival, RN4220 and DeltatarO strains – OD600, teichoic acid synthesis inhibitors, primary screen (AID 463173); details: S. aureus RN4220 wild type/DeltatarO growth, OD600, 18 h, screened at 18.75 µg/mL (by protocol)
Out of some 52,000 compounds screened, about 1,700 (3.3%) were called active. No stated cut-off is given here; in the data, active means survival mostly below about 52% (no sharp cut-off); inactive means mostly above about 56%. The sample holds actives, similar compounds and a random draw of the others, so the mix is not that of the screen.
Log the outcome using a class from active, inactive

As a guide, the following entries are already answered.
Cc1ccc(-c2cc(C(=O)O)n(Cc3ccccc3)n2)cc1    inactive
CCOC(=O)Cc1c(C)nc2c(-c3ccc(Cl)cc3)c(C(F)(F)F)nn2c1C    inactive
CCOC(=O)CCc1c(C)nc2cc(-c3cc(OC)cc(OC)c3)[nH]n2c1=O    inactive

# fetch the recorded call for "Cc1cn2c(=O)cc(COC(=O)c3ccc(NC(=O)COc4ccccc4F)cc3)nc2s1" here
inactive

# fetch the recorded call for Cc1ccccc1Cn1cc(CCC(=O)NC(C)c2ccccc2)c2ccccc21 (stereo unspecified) here
inactive

# fetch the recorded call for "CCCCc1c(C)nc2c(-c3ccc(OC)cc3)c(C)[nH]n2c1=O" here
active

# fetch the recorded call for "COC(=O)c1ccc(Cn2nc(-c3ccc(C)cc3)ccc2=O)cc1" here
inactive

# fetch the recorded call for "CCOc1ccccc1NC(=O)Cn1c(=O)n(-c2ccccc2)c(=O)c2c1c1cc(C)ccc1n2C" here
inactive
